Hey, just so you know, these numbers are from patent US11447460B2.

What pIC50 was measured for each of the following?
Tested on: IL-1β production in PMA-differentiated THP-1 cells
experimental details: IL-1β production in PMA-differentiated THP-1 cells stimulated with gramicidin (hTHP-1 assay, 2% bovine serum; Bioassays 1 and 2)
Type: cell-based, human
conditions used: hTHP-1 assay containing 2% bovine serum; Table 12, by Example #; read-out: Average IC50 of compounds in hTHP-1 assay
pIC50: −log10 of the molar value.

Per the records, this molecule ( "CC(C)(O)c1csc(S(=O)(=O)NC(=O)Cc2c3c(cc4c2CCC4)CCC3)c1" ) has pIC50 equal to 4.82 to 5.30

Per the records, this molecule ( "CC(C)c1cc(F)cc(C(C)C)c1CC(=O)NS(=O)(=O)c1ccc(S(F)(F)(F)(F)F)cc1" ) has pIC50 equal to 4.22 to 4.82

Per the records, this molecule ( "CC(=O)c1ccc(F)c(S(=O)(=O)NC(=O)Cc2c(C(C)C)cc(F)cc2C(C)C)c1" ) has pIC50 equal to 5.30 to 6.00
